# Assay System: Serine/threonine-protein kinase pim-2 (Homo sapiens) (UniProt Q9P1W9)
# Sequence (Q9P1W9 whole entry, looked up): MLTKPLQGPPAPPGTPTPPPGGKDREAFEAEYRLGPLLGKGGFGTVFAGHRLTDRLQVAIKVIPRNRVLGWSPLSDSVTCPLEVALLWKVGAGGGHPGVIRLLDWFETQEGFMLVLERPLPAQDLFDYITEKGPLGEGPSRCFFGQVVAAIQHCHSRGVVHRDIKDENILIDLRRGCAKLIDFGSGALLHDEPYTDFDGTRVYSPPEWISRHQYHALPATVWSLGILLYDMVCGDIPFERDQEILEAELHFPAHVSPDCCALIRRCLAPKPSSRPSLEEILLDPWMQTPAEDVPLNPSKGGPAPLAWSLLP
# Experimental Setup: at 10 µM
Property Label: residual activity
Answer with the value and then the unit.

# input Supply measured residual activity of O=C(Nc1cccc(Nc2nccc(Nc3cccc(C(F)(F)F)c3)n2)c1)C1CC1 in your reply.
# output 119%

# input Supply measured residual activity of NC(=O)c1ccc2[nH]c(-c3ccc(Oc4ccc(Cl)cc4)cc3)nc2c1 in your reply.
# output 119%

# input Supply measured residual activity of Cc1ccc(S(=O)(=O)/C=C/C#N)cc1 in your reply.
# output 103%

# input Supply measured residual activity of C[C@@H](N)[C@H]1CC[C@H](C(=O)Nc2ccncc2)CC1 in your reply.
# output 121%

* * *

Kindly supply the reported residual activity values for the records listed here.
# Assay System: Serine/threonine-protein kinase DCLK2 (Homo sapiens) (UniProt Q8N568)
# Sequence (Q8N568 whole entry): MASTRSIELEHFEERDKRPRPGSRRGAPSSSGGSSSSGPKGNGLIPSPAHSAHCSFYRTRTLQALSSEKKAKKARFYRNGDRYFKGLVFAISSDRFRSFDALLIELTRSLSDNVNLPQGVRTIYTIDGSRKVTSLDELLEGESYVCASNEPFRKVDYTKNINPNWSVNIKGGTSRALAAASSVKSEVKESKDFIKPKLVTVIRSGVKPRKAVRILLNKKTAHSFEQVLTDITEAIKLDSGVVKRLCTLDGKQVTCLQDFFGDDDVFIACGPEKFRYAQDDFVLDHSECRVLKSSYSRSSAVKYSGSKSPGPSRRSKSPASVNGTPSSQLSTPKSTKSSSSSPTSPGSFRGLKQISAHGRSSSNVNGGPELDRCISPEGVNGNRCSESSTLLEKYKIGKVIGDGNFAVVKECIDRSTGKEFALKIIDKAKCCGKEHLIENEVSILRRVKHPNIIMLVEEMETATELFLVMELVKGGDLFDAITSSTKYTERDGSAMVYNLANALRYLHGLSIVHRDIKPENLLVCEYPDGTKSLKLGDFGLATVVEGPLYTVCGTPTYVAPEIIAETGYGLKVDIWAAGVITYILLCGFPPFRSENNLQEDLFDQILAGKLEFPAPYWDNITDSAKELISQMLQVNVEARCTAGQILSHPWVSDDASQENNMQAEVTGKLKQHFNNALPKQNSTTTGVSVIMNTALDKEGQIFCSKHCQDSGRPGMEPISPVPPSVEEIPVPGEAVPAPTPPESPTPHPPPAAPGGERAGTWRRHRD
# Experimental Setup: at 10 µM
Unit % implied. Number only.

# input Supply measured residual activity of CN(C)CCCn1cc(C2=C(c3c[nH]c4ccccc34)C(=O)NC2=O)c2ccccc21 in your reply.
# output 88

# input Supply measured residual activity of COc1cc2ncnc(Nc3ccc(Oc4ccccc4)cc3)c2cc1OC in your reply.
# output 252

# input Supply measured residual activity of CCC(=O)Nc1ccc2ncnc(Nc3cccc(Br)c3)c2c1 in your reply.
# output 100

# input Supply measured residual activity of O=c1cc(-c2cccc3c2Sc2ccccc2S3)oc(N2CCOCC2)c1 in your reply.
# output 85

# input Supply measured residual activity of c1ccc2c(-c3ccncc3)c[nH]c2c1 in your reply.
# output 98

# input Supply measured residual activity of O=Nc1c(-c2c(O)[nH]c3ccccc23)[nH]c2ccccc12 in your reply.
# output 74

# input Supply measured residual activity of Nc1nc(Nc2ccc(S(N)(=O)=O)cc2)nn1C(=S)Nc1c(F)cccc1F in your reply.
# output 2

* * *

Kindly supply the reported residual activity values for the records listed here.
# Assay System: Mitogen-activated protein kinase kinase kinase kinase 2 (Homo sapiens)
# Experimental Setup: at 10 µM
Unit % implied. Number only.

# input Supply measured residual activity of CC#CC(=O)Nc1cc2c(Nc3ccc(F)c(Cl)c3)ncnc2cn1 in your reply.
# output 84

# input Supply measured residual activity of C[C@@H](N)[C@H]1CC[C@H](C(=O)Nc2ccncc2)CC1 in your reply.
# output 88

# input Supply measured residual activity of COc1cc2ncc(-c3ccccc3)nc2cc1OC in your reply.
# output 90

# input Supply measured residual activity of COc1cc2ncnc(N3CCN(C(=O)Nc4ccc(Oc5ccccc5)cc4)CC3)c2cc1OC in your reply.
# output 69

# input Supply measured residual activity of O=C1Nc2cc(Br)ccc2/C1=C1/Nc2ccccc2/C1=N\O in your reply.
# output 25

# input Supply measured residual activity of O=C1c2ccccc2-[n+]2ccc3c([nH]c4ccccc43)c21 in your reply.
# output 73

# input Supply measured residual activity of Nc1n[nH]c2nnc(-c3c(-c4ccccc4)nn4ccccc34)cc12 in your reply.
# output 24

# input Supply measured residual activity of CC(=O)O/N=C1\C(=C2\C(=O)Nc3cc(Br)ccc32)Nc2ccccc21 in your reply.
# output 23

# input Supply measured residual activity of CO[C@H]1C[C@@H]2CC[C@@H](C)[C@@](O)(O2)C(=O)C(=O)N2CCCC[C@H]2C(=O)O[C@H]([C@H](C)C[C@@H]2CC[C@@H](O)[C@H](OC)C2)CC(=O)[C@H](C)/C=C(\C)[C@@H](O)[C@@H](OC)C(=O)[C@H](C)C[C@H](C)/C=C/C=C/C=C/1C in your reply.
# output 79

# input Supply measured residual activity of O=C1NC(=O)c2c1c1c3ccccc3[nH]c1c1[nH]c3cc(Br)ccc3c21 in your reply.
# output 74

# input Supply measured residual activity of COc1ccc(C(=O)Nc2sc3c(c2C(N)=O)CCCC3)cc1OC in your reply.
# output 81

# input Supply measured residual activity of Oc1ccc(Nc2nc(-c3ccc(Cl)cc3)cs2)cc1 in your reply.
# output 60

# input Supply measured residual activity of CC(C)n1cnc2c(NCc3ccccc3)nc(NCCCO)nc21 in your reply.
# output 75

# input Supply measured residual activity of COc1ccc(CNc2nc(N(CCO)CCO)nc3c2ncn3C(C)C)cc1 in your reply.
# output 78

# input Supply measured residual activity of Cc1cc(Nc2nc(-c3ccccc3)nc3ccccc23)n[nH]1 in your reply.
# output 6

# input Supply measured residual activity of CCOc1cc2ncnc(Nc3cccc(Br)c3)c2cc1OCC in your reply.
# output 39

# input Supply measured residual activity of O=C(Nc1cccc(Nc2nccc(Nc3cccc(C(F)(F)F)c3)n2)c1)C1CC1 in your reply.
# output 32

# input Supply measured residual activity of CC(C)n1cnc2/c(=N/c3cccc(Cl)c3)nc(NCCO)[nH]c21 in your reply.
# output 19

# input Supply measured residual activity of CO[C@H]1[C@@H](OC)C[C@H](C)[C@@H](OC)C2=CC(=O)C=C(NC(=O)/C(C)=C/C=C/[C@H](OC)[C@@H](OC(N)=O)/C(C)=C/[C@@H]1C)C2=O in your reply.
# output 81

# input Supply measured residual activity of Ic1cccc(CSc2nnc(-c3ccncc3)o2)c1 in your reply.
# output 35
